Target: human IL-6 (human, UniProt P05231 30-212)
Sequence (P05231 30-212 limits assumed): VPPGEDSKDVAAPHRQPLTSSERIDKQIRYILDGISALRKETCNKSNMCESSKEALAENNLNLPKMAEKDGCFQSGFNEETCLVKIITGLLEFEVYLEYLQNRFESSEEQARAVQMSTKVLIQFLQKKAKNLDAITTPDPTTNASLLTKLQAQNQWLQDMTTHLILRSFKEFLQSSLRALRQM
Test: SPR Biacore, purified, Protein A capture, 37 C
pKd: −log10 of the molar value.

{"Binder": "Anti-IL-6 antibody, heavy chain S35H, G66D, L100A / light chain M32L, M50D, N52S, M88Q (antibody, IgG1, V domains shown, IgG1; variable domains only; VL is variant III) VH: EVQLVESGGGLVQPGGSLRLSCAASGFTFSPFAMHWVRQAPGKGLEWVAKISPGGSWTYYSDTVTDRFTFSLDTSKSTAYLQMNSLRAEDTAVYYCARQAWGYYALDIWGQGTLVTVSS VL: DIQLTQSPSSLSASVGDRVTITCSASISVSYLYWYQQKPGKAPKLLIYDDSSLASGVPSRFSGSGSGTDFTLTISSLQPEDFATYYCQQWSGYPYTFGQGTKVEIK", "pKd": 9.96}
{"Binder": "Anti-IL-6 antibody, heavy chain S35H, G66D, L100G / light chain M32L, M50D, N52S, M88Q (antibody, IgG1, V domains shown, IgG1; variable domains only; VL is variant III) VH: EVQLVESGGGLVQPGGSLRLSCAASGFTFSPFAMHWVRQAPGKGLEWVAKISPGGSWTYYSDTVTDRFTFSLDTSKSTAYLQMNSLRAEDTAVYYCARQGWGYYALDIWGQGTLVTVSS VL: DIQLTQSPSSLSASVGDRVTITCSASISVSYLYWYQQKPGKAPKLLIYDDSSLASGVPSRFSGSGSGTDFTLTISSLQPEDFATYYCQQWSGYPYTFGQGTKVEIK", "pKd": 9.60}
{"Binder": "Anti-IL-6 antibody, heavy chain S35H, G66D, L100K / light chain M32L, M50D, N52S, M88Q (antibody, IgG1, V domains shown, IgG1; variable domains only; VL is variant III) VH: EVQLVESGGGLVQPGGSLRLSCAASGFTFSPFAMHWVRQAPGKGLEWVAKISPGGSWTYYSDTVTDRFTFSLDTSKSTAYLQMNSLRAEDTAVYYCARQKWGYYALDIWGQGTLVTVSS VL: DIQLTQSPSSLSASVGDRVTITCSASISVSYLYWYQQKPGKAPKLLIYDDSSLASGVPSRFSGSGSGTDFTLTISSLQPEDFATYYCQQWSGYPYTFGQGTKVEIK", "pKd": 9.73}
